Test system: HIV-1 Env-pseudoviruses (30-strain panel)
Assay: Neutralization assay, cross-clade 30-strain panel (Env-pseudoviruses, TZM-bl target cells)
Format: cell-based
Experimental Parameters: Human immunodeficiency virus 1, TZM-bl, NKU3006.ec1 (Clade D); read-out: IC50
Result Type: IC50

# example entries with known answers
Compound | Result
O=C(C(=O)N1CCN(C(=O)c2ccccc2)CC1)c1c[nH]c2c(F)ccc(Br)c12 [BMS-386150] | 256 nM
COc1cnc(-c2csc(CN(C)CCCN(C)C)n2)c2[nH]cc(C(=O)C(=O)N3CCC(=C(C#N)c4ccccc4)CC3)c12 [BMS-814508] | 1 nM
COc1cnc(-n2cnc(C)n2)c2[nH]cc(C(=O)C(=O)N3CCN(C(=O)c4ccccc4)CC3)c12 [BMS-626529] | 2 nM

Which value of IC50 has been reported for O=C(c1ccsc1)N1CCN(C(=O)C2(c3cccc(Cl)c3)CC2)CC1 [Compound 484, reference compound] in the records?
1650 nM

Which value of IC50 has been reported for COc1cnc(-c2csc(C(=O)NCCO)n2)c2[nH]cc(C(=O)C(=O)N3CCC(=C(C#N)c4ccccc4)CC3)c12 [BMS-818251] in the records?
< 0.3 nM
